# Test Parameters: 308.15 K; 101 kPa; Liquid
Collected mass density values appear next to each entry.

Compound: ClCC(Cl)Cl
mass density, kg/m3: 1416.1

Compound: CNC(C)=O [N-methylacetamide]
mass density, kg/m3: 945.9

Compound: ClC(Cl)C(Cl)Cl
mass density, kg/m3: 1572.4

Compound: ClC(Cl)=C(Cl)Cl
mass density, kg/m3: 1599.2

Compound: ClC=C(Cl)Cl
mass density, kg/m3: 1438.5

Compound: ClCCCl
mass density, kg/m3: 1230.8
